tested on: Kidney; experiment: Biodistribution in kidney of B16F0 tumor bearing C57BL/6J mouse at 0.37-0.74 MBq, iv after 1 hr; type: ADME, organism-based; conditions: in vivo
Mark 0 for Drug uptake values under 9 % ID/g, and 1 for everything at or above.

For orientation, consider the following solved cases.
Ask: Form field: Drug uptake at least 9 % ID/g? Entry: COc1cc(NC(C)=O)c([123I])cc1C(=O)NCCCCN(C)C(C)C
Reply: 0

Ask: Form field: Drug uptake at least 9 % ID/g? Entry: CCN(CC)CCNC(=O)c1cc([123I])c(NS(=O)(=O)c2ccc(C)cc2)cc1OC
Reply: 0

New cases:
Ask: Form field: Drug uptake at least 9 % ID/g? Entry: COc1cc(NC(C)=O)c([123I])cc1C(=O)NCCCCN1CC2CCC1C2 (stereo not drawn)
Reply: 0

Ask: Form field: Drug uptake at least 9 % ID/g? Entry: O=C(NC1CCN(CCO)CC1)c1ccc([123I])cc1
Reply: 1

* * *

tested on: Lung; assay: Biodistribution in lung of B16F0 tumor bearing C57BL/6J mouse at 0.37-0.74 MBq, iv after 1 hr; type: ADME, organism-based; settings: in vivo
Quick reference: Drug uptake of the listed items.
Use % ID/g as the unit, but write only the number.

Recorded results for 5 compounds are shown here.
Drug uptake in this record for CCN(CC)CCNC(=O)c1cc([123I])c(NS(C)(=O)=O)cc1OC : 0.67

Drug uptake in this record for CCN(CC)CCNC(=O)c1cc([123I])c(NC(C)=O)cc1OC : 1.3

Drug uptake in this record for COc1cc(NC(C)=O)c([123I])cc1C(=O)NCCCCN1CC2CCC1C2 (stereo not drawn) : 2.6

Drug uptake in this record for CCN(CC)CCNC(=O)c1ccccc1[123I] : 4.5

Drug uptake in this record for COc1cc(NC(C)=O)c([123I])cc1C(=O)NCCCCN(C)C(C)C : 1.5

New cases:
Drug uptake in this record for CCCCNCCCCNC(=O)c1cc([123I])c(NC(C)=O)cc1OC : 2

* * *

tested on: Lung; assay: Biodistribution in lung of B16F0 tumor bearing C57BL/6J mouse at 0.37-0.74 MBq, iv after 6 hrs; assay type: ADME, organism-based; conditions: in vivo
property: Drug uptake (% ID/g)
Use % ID/g as the unit, but write only the number.

Recorded results for 3 compounds are shown here.
Drug uptake in this record for CCN(CC)CCNC(=O)c1cc([123I])c(NC(C)=O)cc1OC : 0.4

Drug uptake in this record for O=C(NC1CCN(CCF)CC1)c1ccc(I)cc1 : 6.4

Drug uptake in this record for CCCN(CCC)CCCCNC(=O)c1ccc([123I])cc1 : 3.9

New cases:
Drug uptake in this record for CCN(CC)CCNC(=O)c1cc([123I])c(NS(C)(=O)=O)cc1OC : 0.38

Drug uptake in this record for COc1cc(NC(C)=O)c([123I])cc1C(=O)NCCCCN1CC2CCC1C2 (stereo not drawn) : 0.68

Drug uptake in this record for O=C(NCCCCN1CC2CCC1C2)c1ccc([123I])cc1 (stereo not drawn) : 2.1

Drug uptake in this record for CCCCNCCCCNC(=O)c1cc([123I])c(NC(C)=O)cc1OC : 0.45

Drug uptake in this record for CCCN(CCC)CCCCNC(=O)c1cc([123I])c(NC(C)=O)cc1OC : 0.8

Drug uptake in this record for O=C(NC1CCN(CCO)CC1)c1ccc([123I])cc1 : 4.7

Drug uptake in this record for COc1cc(NC(C)=O)c([123I])cc1C(=O)NCCCCN(C)C(C)C : 0.5

Drug uptake in this record for CCN(CC)CCNC(=O)c1cc([123I])c(NS(=O)(=O)c2ccc(C)cc2)cc1OC : 0.22

Drug uptake in this record for CCCCN(C)CCCCNC(=O)c1cc([123I])c(NC(C)=O)cc1OC : 0.56

Drug uptake in this record for CCN(CC)CCNC(=O)c1ccccc1[123I] : 0.82

* * *

Quick reference: Drug uptake of the listed items.
tested on: Heart; experiment: Biodistribution in heart of B16F0 tumor bearing C57BL/6J mouse at 0.37-0.74 MBq, iv after 6 hrs; assay type: ADME, organism-based; details: in vivo
Use % ID/g as the unit, but write only the number.

Recorded results for 10 compounds are shown here.
Drug uptake in this record for CCCCNCCCCNC(=O)c1cc([123I])c(NC(C)=O)cc1OC : 0.28

Drug uptake in this record for O=C(NC1CCN(CCF)CC1)c1ccc(I)cc1 : 0.93

Drug uptake in this record for CCCN(CCC)CCCCNC(=O)c1ccc([123I])cc1 : 0.81

Drug uptake in this record for CCN(CC)CCNC(=O)c1cc([123I])c(NS(C)(=O)=O)cc1OC : 0.19

Drug uptake in this record for CCN(CC)CCNC(=O)c1cc([123I])c(NS(=O)(=O)c2ccc(C)cc2)cc1OC : 0.11

Drug uptake in this record for CCN(CC)CCNC(=O)c1cc([123I])c(NC(C)=O)cc1OC : 0.31

Drug uptake in this record for COc1cc(NC(C)=O)c([123I])cc1C(=O)NCCCCN1CC2CCC1C2 (stereo not drawn) : 0.3

Drug uptake in this record for CCCCN(C)CCCCNC(=O)c1cc([123I])c(NC(C)=O)cc1OC : 0.75

Drug uptake in this record for COc1cc(NC(C)=O)c([123I])cc1C(=O)NCCCCN(C)C(C)C : 0.3

Drug uptake in this record for CCN(CC)CCNC(=O)c1ccccc1[123I] : 0.4

New cases:
Drug uptake in this record for CCCN(CCC)CCCCNC(=O)c1cc([123I])c(NC(C)=O)cc1OC : 0.49

Drug uptake in this record for O=C(NCCCCN1CC2CCC1C2)c1ccc([123I])cc1 (stereo not drawn) : 0.44

Drug uptake in this record for O=C(NC1CCN(CCO)CC1)c1ccc([123I])cc1 : 0.93

* * *

system: Liver; assay: Biodistribution in liver of B16F0 tumor bearing C57BL/6J mouse at 0.37-0.74 MBq, iv after 1 hr; assay type: ADME, organism-based; settings: in vivo
property: Drug uptake (% ID/g)
Use % ID/g as the unit, but write only the number.

Recorded results for 6 compounds are shown here.
Drug uptake in this record for O=C(NC1CCN(CCO)CC1)c1ccc([123I])cc1 : 17.1

Drug uptake in this record for CCCN(CCC)CCCCNC(=O)c1cc([123I])c(NC(C)=O)cc1OC : 7.3

Drug uptake in this record for COc1cc(NC(C)=O)c([123I])cc1C(=O)NCCCCN1CC2CCC1C2 (stereo not drawn) : 7.1

Drug uptake in this record for COc1cc(NC(C)=O)c([123I])cc1C(=O)NCCCCN(C)C(C)C : 9.5

Drug uptake in this record for CCCN(CCC)CCCCNC(=O)c1ccc([123I])cc1 : 49.1

Drug uptake in this record for CCCCN(C)CCCCNC(=O)c1cc([123I])c(NC(C)=O)cc1OC : 16.8

New cases:
Drug uptake in this record for CCN(CC)CCNC(=O)c1ccccc1[123I] : 6.8

Drug uptake in this record for O=C(NCCCCN1CC2CCC1C2)c1ccc([123I])cc1 (stereo not drawn) : 43.2

Drug uptake in this record for CCCCNCCCCNC(=O)c1cc([123I])c(NC(C)=O)cc1OC : 6

* * *

system: Brain; experiment: Biodistribution in brain of B16F0 tumor bearing C57BL/6J mouse at 0.37-0.74 MBq, iv after 6 hrs; assay type: ADME, organism-based; conditions: in vivo
Please assign f whenever Drug uptake is at or above 0.03 % ID/g, and t whenever it is below.

For orientation, consider the following solved cases.
Ask: State whether 0.03 % ID/g exceeds Drug uptake recorded for CCN(CC)CCNC(=O)c1cc([123I])c(NS(C)(=O)=O)cc1OC .
Reply: t

Ask: State whether 0.03 % ID/g exceeds Drug uptake recorded for CCN(CC)CCNC(=O)c1ccccc1[123I] .
Reply: f

Ask: State whether 0.03 % ID/g exceeds Drug uptake recorded for O=C(NC1CCN(CCO)CC1)c1ccc([123I])cc1 .
Reply: f

New cases:
Ask: State whether 0.03 % ID/g exceeds Drug uptake recorded for CCCN(CCC)CCCCNC(=O)c1cc([123I])c(NC(C)=O)cc1OC .
Reply: f

Ask: State whether 0.03 % ID/g exceeds Drug uptake recorded for CCCCNCCCCNC(=O)c1cc([123I])c(NC(C)=O)cc1OC .
Reply: t

Ask: State whether 0.03 % ID/g exceeds Drug uptake recorded for CCCN(CCC)CCCCNC(=O)c1ccc([123I])cc1 .
Reply: f

Ask: State whether 0.03 % ID/g exceeds Drug uptake recorded for CCN(CC)CCNC(=O)c1cc([123I])c(NC(C)=O)cc1OC .
Reply: t

Ask: State whether 0.03 % ID/g exceeds Drug uptake recorded for O=C(NC1CCN(CCF)CC1)c1ccc(I)cc1 .
Reply: f

Ask: State whether 0.03 % ID/g exceeds Drug uptake recorded for O=C(NCCCCN1CC2CCC1C2)c1ccc([123I])cc1 (configuration not stated) .
Reply: f
